From: ChEMBL document CHEMBL4819144

# TARGET_OR_SYSTEM: 5'-nucleotidase (Rattus norvegicus)
# Sequence (P21588 whole entry): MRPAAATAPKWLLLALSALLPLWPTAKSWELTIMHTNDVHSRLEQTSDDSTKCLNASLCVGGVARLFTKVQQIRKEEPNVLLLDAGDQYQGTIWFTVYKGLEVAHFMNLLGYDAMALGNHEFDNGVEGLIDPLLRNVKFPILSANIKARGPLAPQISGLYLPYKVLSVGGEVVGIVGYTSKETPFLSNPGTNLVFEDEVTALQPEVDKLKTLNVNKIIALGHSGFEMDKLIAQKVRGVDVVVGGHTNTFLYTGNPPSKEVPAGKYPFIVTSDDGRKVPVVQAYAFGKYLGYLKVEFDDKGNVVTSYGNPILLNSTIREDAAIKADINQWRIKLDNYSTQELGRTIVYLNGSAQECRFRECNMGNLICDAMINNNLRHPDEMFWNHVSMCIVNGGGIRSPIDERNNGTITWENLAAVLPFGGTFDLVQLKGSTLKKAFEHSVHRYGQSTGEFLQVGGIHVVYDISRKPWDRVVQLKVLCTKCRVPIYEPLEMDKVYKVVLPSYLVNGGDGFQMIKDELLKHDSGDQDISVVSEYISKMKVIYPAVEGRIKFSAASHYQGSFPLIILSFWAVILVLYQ
VALUE_KIND: IC50 (µM)
Field: numeric (µM). Do not append units.

Ask: Quick one: give measured IC50 for O=c1ccn([C@@H]2O[C@H](COP(=O)(O)CP(=O)(O)O)[C@@H](O)[C@H]2O)c(=O)[nH]1
Result: 1.83

---

# TARGET_OR_SYSTEM: P2Y purinoceptor 6 (Homo sapiens, UniProt Q15077)
# Sequence (Q15077 whole entry): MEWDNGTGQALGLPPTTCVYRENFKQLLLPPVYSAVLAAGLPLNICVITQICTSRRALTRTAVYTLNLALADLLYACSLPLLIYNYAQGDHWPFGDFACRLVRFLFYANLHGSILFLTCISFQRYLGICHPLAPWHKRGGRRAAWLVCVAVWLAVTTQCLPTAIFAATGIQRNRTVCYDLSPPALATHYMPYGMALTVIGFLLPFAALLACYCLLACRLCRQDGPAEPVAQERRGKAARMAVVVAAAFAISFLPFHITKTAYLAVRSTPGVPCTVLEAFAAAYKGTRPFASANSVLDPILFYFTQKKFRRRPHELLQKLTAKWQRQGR
# EXPERIMENT: Agonist activity at human P2Y6R expressed in 1321N1 cells assessed as calcium mobilization measured by FLIPR method
# Assay type: functional, cell-based
VALUE_KIND: pEC50
pEC50 (log units): -log10 of the concentration in mol/L.

{"CHEMICAL_STRUCTURE": "O=c1[nH]/c(=N\\OCc2cccc(Cl)c2)ccn1[C@@H]1O[C@H](COP(=O)(O)CP(=O)(O)O)[C@@H](O)[C@H]1O", "TARGET_OR_SYSTEM": "P2Y purinoceptor 6 (Homo sapiens, UniProt Q15077)", "MEASURED_VALUE": 5.84}

# input for lookup
Ask: Provide P2Y purinoceptor 6 (Homo sapiens, UniProt Q15077) pEC50 reading for O=c1[nH]/c(=N/OCc2ccccc2)c(F)cn1[C@@H]1O[C@H](COP(=O)(O)CP(=O)(O)O)[C@@H](O)[C@H]1O .
Result: 6.26

---

# TARGET_OR_SYSTEM: P2Y purinoceptor 6 (Homo sapiens)
# EXPERIMENT: Agonist activity at human P2Y6R expressed in 1321N1 cells assessed as calcium mobilization measured by microplate reader method
# Format: functional, cell-based
# Lookup of reported pEC50 keyed by entry
Reminder that pEC50 is minus the log10 of a molar concentration.

Recorded results for 5 molecules are shown here.
{"CHEMICAL_STRUCTURE": "CO/N=c1/ccn([C@@H]2O[C@H](COP(=O)(O)OP(=O)(O)O)[C@@H](O)[C@H]2O)c(=O)[nH]1", "pEC50": 6.31}
{"CHEMICAL_STRUCTURE": "O=c1[nH]/c(=N\\OCc2ccccc2)ccn1[C@@H]1O[C@H](COP(=O)(O)OP(=O)(O)O)[C@@H](O)[C@H]1O", "pEC50": 6.10}
{"CHEMICAL_STRUCTURE": "O=c1[nH]c(=O)n([C@@H]2O[C@H](COP(=O)(O)CP(=O)(O)O)[C@@H](O)[C@H]2O)cc1Br", "pEC50": 6.98}
{"CHEMICAL_STRUCTURE": "O=c1[nH]/c(=N/OCc2ccccc2)c(F)cn1[C@@H]1O[C@H](COP(=O)(O)CP(=O)(O)O)[C@@H](O)[C@H]1O", "pEC50": 6.26}
{"CHEMICAL_STRUCTURE": "O=c1[nH]c(=O)n([C@@H]2O[C@H](COP(=O)(O)CP(=O)(O)O)[C@@H](O)[C@H]2O)cc1I", "pEC50": 7.31}

Ask: Answer with pEC50 of O=c1[nH]/c(=N\OCc2ccc(S(F)(F)(F)(F)F)cc2)ccn1[C@@H]1O[C@H](COP(=O)(O)CP(=O)(O)O)[C@@H](O)[C@H]1O measured for P2Y purinoceptor 6 (Homo sapiens).
Result: 5.80

Ask: Find pEC50 for O=c1[nH]/c(=N\OCc2cccc(Cl)c2)ccn1[C@@H]1O[C@H](COP(=O)(O)CP(=O)(O)O)[C@@H](O)[C@H]1O on P2Y purinoceptor 6 (Homo sapiens) and write it down.
Result: 5.84

Ask: Write down measured pEC50 (P2Y purinoceptor 6 (Homo sapiens)) for this molecule. COC(=O)c1ccc(CO/N=c2/ccn([C@@H]3O[C@H](COP(=O)(O)CP(=O)(O)O)[C@@H](O)[C@H]3O)c(=O)[nH]2)cc1
Result: 5.78

---

// reported Activity for each item listed
# TARGET_OR_SYSTEM: UniProt Q15077
# EXPERIMENT: Agonist activity at human P2Y6R expressed in 1321N1 cells assessed as calcium mobilization at 3 uM measured by microplate reader method relative to control
# Format: functional, cell-based
A complete answer gives the number followed by the unit.

Consider the reported Activity for these compounds:
{"CHEMICAL_STRUCTURE": "Nc1nc(=O)n([C@@H]2O[C@H](COP(=O)(O)CP(=O)(O)O)[C@@H](O)[C@H]2O)cc1F", "Activity": "5.7%"}
{"CHEMICAL_STRUCTURE": "CCn1c(=O)n([C@@H]2O[C@H](COP(=O)(O)CP(=O)(O)O)[C@@H](O)[C@H]2O)cc/c1=N/OCc1ccccc1", "Activity": "5.7%"}
{"CHEMICAL_STRUCTURE": "Cc1cn([C@@H]2O[C@H](COP(=O)(O)CP(=O)(O)O)[C@@H](O)[C@H]2O)c(=O)nc1N", "Activity": "3%"}

Turning to the following compound.
Ask: Note Activity for the compound shown: CCCn1c(=O)ccn([C@@H]2O[C@H](COP(=O)(O)CP(=O)(O)O)[C@@H](O)[C@H]2O)c1=O
Result: 2.7%
